procedure details: AUCall in rat at 20 mg/kg, po single dose
Format: ADME, organism-based
condition: in vivo
recorded endpoint: AUC (ng·h/mL)

line notation	data value
O=c1[nH]c2ccc(Nc3ncnc4c3ccn4Cc3ccc(F)cc3)cc2[nH]1	43600

---

# maps each entry to its inhibition at 10 µM
procedure details: Inhibition of LPS-induced NO production in mouse BV-2 cells at 10 uM measured after 24 hrs followed by induced with LPS for another 24 hrs by ELISA relative to control
Assay type: functional

line notation	inhibition at 10 µM, %
O=c1[nH]c2ccc(Nc3ncnc4c3ccn4Cc3ccc(F)cc3Cl)cc2o1	54.3
O=c1[nH]c2ccc(Nc3ncnc4c3cnn4Cc3cc(F)cc(Cl)c3)cc2[nH]1	61.7
O=c1[nH]c2ccc(Nc3ncnc4c3ccn4Cc3ccccc3)cc2[nH]1	76.6
O=c1[nH]c2ccc(Nc3ncnc4c3ccn4Cc3cc(F)cc(Cl)c3)cc2[nH]1	45.7
O=c1[nH]c2ccc(Nc3ncnc4c3ccn4Cc3ccc(Cl)cc3)cc2[nH]1	71.3
Cc1ccccc1Cn1ccc2c(Nc3ccc4[nH]c(=O)[nH]c4c3)ncnc21	63.5
O=c1[nH]c2ccc(Nc3ncnc4c3ccn4Cc3cccc4cccnc34)cc2[nH]1	43.8
COc1cccc(Cn2ccc3c(Nc4ccc5[nH]c(=O)[nH]c5c4)ncnc32)c1	63.8
COc1ccc2c3c1O[C@H]1C[C@@H](O)C=C[C@@]31CCNC2	55.7
O=c1[nH]c2ccc(Nc3ncnc4c3ccn4Cc3ccc(F)cc3)cc2[nH]1	95
O=c1[nH]c2ccc(Nc3ncnc4c3ccn4Cc3ccc(F)cc3F)cc2[nH]1	54.3
O=c1[nH]c2ccc(Nc3ncnc4c3ccn4Cc3ccc(Cl)c(F)c3)cc2[nH]1	103
O=c1[nH]c2ccc(Nc3ncnc4c3cnn4Cc3cccc(F)c3Cl)cc2[nH]1	96.2
COc1cc(Cn2ccc3c(Nc4ccc5c(cnn5C)c4)ncnc32)cc(OC)c1	63.8
Fc1ccc(Cn2ccc3c(Nc4ccc5c(c4)OCO5)ncnc32)c(Cl)c1	46.8
O=c1[nH]c2ccc(Nc3ncnc4c3ccn4Cc3ccc4c(c3)OCO4)cc2[nH]1	56.3
COc1cc(Cn2ccc3c(Nc4ccc5[nH]c(=O)[nH]c5c4)ncnc32)cc(OC)c1	42.5
O=c1[nH]c2ccc(Nc3ncnc4c3ccn4Cc3ccc(I)cc3)cc2[nH]1	74.5
COc1ccc(Cn2ccc3c(Nc4ccc5[nH]c(=O)[nH]c5c4)ncnc32)cc1	76.6
O=c1[nH]c2ccc(Nc3ncnc4c3ccn4Cc3ccc(F)cc3Cl)cc2[nH]1	78.5
COc1cc([C@H]2OC[C@H]3[C@@H]2CO[C@@H]3c2cc(OC)c(O)c(OC)c2)cc(OC)c1O	75.6
COc1cc(Cn2ccc3c(Nc4ccc5c(c4)OCO5)ncnc32)cc(OC)c1	70.2
COc1cc(Cn2ccc3c(Nc4ccc5cn[nH]c5c4)ncnc32)cc(OC)c1	77.7
O=C(Cn1ccc2c(Nc3ccc4[nH]c(=O)[nH]c4c3)ncnc21)N1CCOCC1	54.3
